readout: melting point

# count of solved cases: 2
Exam item: Dear colleague, I am looking for the recorded melting point of the following molecule: `CC(C)(O)CC[C@H](C[C@H](O)[C@H](Cc1ccccc1)NC(=O)c1cnccc1C(F)(F)F)C(N)=O`
Marked response: 131 to 135 °C

Exam item: Dear colleague, I am looking for the recorded melting point of the following molecule: `CC(C)(O)CC[C@H](C[C@H](O)[C@H](Cc1ccc(F)c(F)c1)NC(=O)c1cnc2ccccc2n1)C(=O)NO`
Marked response: 150 to 153 °C

---
Exam item: Dear colleague, I am looking for the recorded melting point of the following molecule: `CC(C)(O)CC[C@H](C[C@H](O)[C@H](Cc1ccc2ccccc2c1)NC(=O)c1cnc2ccccc2n1)C(N)=O`
Marked response: 104 to 106 °C

Exam item: Dear colleague, I am looking for the recorded melting point of the following molecule: `CC(C)(O)CC[C@H](C[C@H](O)[C@H](Cc1cccc2ccccc12)NC(=O)c1cnc2ccccc2n1)C(N)=O`
Marked response: 155 to 158 °C

Exam item: Dear colleague, I am looking for the recorded melting point of the following molecule: `CC(C)(O)CC[C@H](C[C@H](O)[C@H](Cc1cccc(F)c1)NC(=O)c1cnc2c(F)c(F)c(F)cc2c1)C(N)=O`
Marked response: 183 to 185 °C

Exam item: Dear colleague, I am looking for the recorded melting point of the following molecule: `CC(C)(O)CC[C@H](C[C@H](O)[C@H](Cc1cc(F)cc(F)c1)NC(=O)c1cnc2ccccc2n1)C(N)=O`
Marked response: 162 to 163 °C

----------
readout: melting point

Exam item: Dear colleague, I am looking for the recorded melting point of the following compound: `CC(C)(O)CC[C@H](C[C@H](O)[C@H](Cc1csc2ccccc12)NC(=O)c1cnc2ccccc2n1)C(N)=O`
Marked response: 163 to 164 °C

Exam item: Dear colleague, I am looking for the recorded melting point of the following compound: `CC(C)(O)CC[C@H](C[C@H](O)[C@H](Cc1cccs1)NC(=O)c1cnc2ccccc2n1)C(N)=O`
Marked response: 158 to 159 °C

Exam item: Dear colleague, I am looking for the recorded melting point of the following compound: `CC(C)(O)CC[C@H](C[C@H](O)[C@H](Cc1ccccc1F)NC(=O)c1cnc2ccccc2n1)C(=O)NO`
Marked response: 130 to 131 °C

Exam item: Dear colleague, I am looking for the recorded melting point of the following compound: `CC(C)(O)CC[C@H](C[C@H](O)[C@H](Cc1ccc(F)c(F)c1)NC(=O)c1cnc2ccccc2n1)C(N)=O`
Marked response: 110 to 120 °C

Exam item: Dear colleague, I am looking for the recorded melting point of the following compound: `CC(C)(O)CC[C@H](C[C@H](O)[C@H](Cc1ccccc1F)NC(=O)c1cnc2ccccc2n1)C(N)=O`
Marked response: 147 to 148 °C

Exam item: Dear colleague, I am looking for the recorded melting point of the following compound: NC(=O)C(Cc1ccc(O)cc1)CC(O)C(Cc1ccccc1)NC(=O)c1cnc2ccccc2n1 (stereo not shown)
Marked response: 190.5 to 191.5 °C

Next compound, melting point to be filled in.
Exam item: Dear colleague, I am looking for the recorded melting point of the following compound: `CC(C)(O)CC[C@H](C[C@H](O)[C@H](Cc1cc(F)cc(F)c1)NC(=O)c1cnc2ccccc2n1)C(=O)NO`
Marked response: 98 to 100 °C
